biological target: Human CGRP receptor (Homo sapiens, UniProt O60894+Q16602); construct: expressed in transfected cells; membranes; test: Human CGRP receptor binding (125I-CGRP displacement); settings: table of Examples 32-37; read-out: Ki
Sequence (Q16602 23-461): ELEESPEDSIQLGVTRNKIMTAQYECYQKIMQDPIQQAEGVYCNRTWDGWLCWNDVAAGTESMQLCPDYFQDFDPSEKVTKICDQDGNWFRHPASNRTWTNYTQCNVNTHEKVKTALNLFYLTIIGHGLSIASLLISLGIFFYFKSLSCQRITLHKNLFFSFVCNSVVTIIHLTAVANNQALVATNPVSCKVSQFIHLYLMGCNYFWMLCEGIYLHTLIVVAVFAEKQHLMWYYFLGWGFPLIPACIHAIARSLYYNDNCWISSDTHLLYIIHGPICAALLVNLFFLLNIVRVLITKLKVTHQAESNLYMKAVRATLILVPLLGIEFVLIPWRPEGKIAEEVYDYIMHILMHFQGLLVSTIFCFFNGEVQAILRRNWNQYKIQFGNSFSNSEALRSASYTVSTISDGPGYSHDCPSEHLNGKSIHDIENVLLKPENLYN
Sequence (O60894 27-148): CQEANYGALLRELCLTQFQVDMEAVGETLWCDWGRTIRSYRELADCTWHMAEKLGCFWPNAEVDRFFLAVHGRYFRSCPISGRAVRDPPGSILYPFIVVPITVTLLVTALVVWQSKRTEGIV
Items are presented alongside their recorded Ki.

{"columns": ["Compound", "Ki [nM]"],
 "data": [
  ["CC(C)(C)OC(=O)[C@H](NC(=O)c1cnc2cc3c(cc2c1)C[C@@]1(C3)C(=O)Nc2ncccc21)c1ccccc1", 120],
  ["CC(C)(C)OC(=O)[C@@H](NC(=O)c1cnc2cc3c(cc2c1)C[C@@]1(C3)C(=O)Nc2ncccc21)c1ccccc1", 140],
  ["CC(C)(C)OC(=O)CC(NC(=O)c1cnc2cc3c(cc2c1)C[C@@]1(C3)C(=O)Nc2ncccc21)c1ccccc1 (stereo partly drawn)", 76]
]}

* * *

Target: Human CGRP receptor (Homo sapiens, UniProt O60894+Q16602)
Construct: expressed in transfected cells; membranes
Experiment: Human CGRP receptor binding (125I-CGRP displacement)
Conditions: read-out: Human CGRP receptor binding Ki
Experimental: NATIVE RECEPTOR BINDING ASSAY: The binding of ^125I-CGRP to receptors in SK-N-MC cell membranes was carried out essentially as described (Edvinsson et al. (2001) Eur. J. Pharmacol. 415, 39-44). […] Scintillation fluid (50 μL) was added and the radioactivity was counted on a Topcount (Packard Instrument). Data analysis was carried out by using Prism and the Ki was determined by using the Cheng-Prusoff equation (Cheng & Prusoff (1973) Biochem. Pharmacol. 22, 3099-3108). […]
Recorded measurements of Ki, one per entry

{"columns": ["Molecule", "Unit abbreviation", "Ki"],
 "data": [
  ["CCOC(=O)CN(Cc1ccccc1)C(=O)c1cnc2cc3c(cc2c1)C[C@@]1(C3)C(=O)Nc2ncccc21", "nM", 60],
  ["CC(c1cc(F)cc(F)c1)N(Cc1cnc2cc3c(cc2c1)C[C@@]1(C3)C(=O)Nc2ncccc21)C(=O)C1CCOCC1 (stereo in doubt)", "nM", 0.05]
]}
